SUBJECT OF TEST: murine E^d MHC class II allele (Mus musculus, UniProt P01904+P01915)
Sequence (P01904 26-255): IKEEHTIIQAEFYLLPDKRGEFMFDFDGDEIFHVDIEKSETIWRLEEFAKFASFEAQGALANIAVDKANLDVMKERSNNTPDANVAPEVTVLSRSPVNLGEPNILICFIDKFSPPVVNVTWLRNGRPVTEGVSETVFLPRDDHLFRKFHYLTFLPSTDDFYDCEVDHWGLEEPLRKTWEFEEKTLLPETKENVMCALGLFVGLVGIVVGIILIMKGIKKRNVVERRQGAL
Sequence (P01915 27-264 limits assumed): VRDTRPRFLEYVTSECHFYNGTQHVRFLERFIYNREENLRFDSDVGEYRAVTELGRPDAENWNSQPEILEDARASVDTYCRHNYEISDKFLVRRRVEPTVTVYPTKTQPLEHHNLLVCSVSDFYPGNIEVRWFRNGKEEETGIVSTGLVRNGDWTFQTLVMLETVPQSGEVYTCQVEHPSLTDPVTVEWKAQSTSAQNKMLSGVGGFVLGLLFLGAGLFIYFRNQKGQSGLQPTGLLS
TEST DETAILS: simultaneous assay, E^d allele (A20 APC, G28.C9 T hybridoma, HEL106-116; HT-2 [3H]TdR readout)
Format: cell-based
Design: The A20 and CH27 B cell lymphoma lines express H-2^d and H-2^k alleles, respectively; endogenous in cells; host or cells: A20 B cell lymphoma (mitomycin C-treated or paraformaldehyde-fixed)
CONDITION LABEL: Table 10; AE peptide 16 μM (second value); supernatant 1:2
# key: entry, value: Times Baseline Response, E^d
Lab note: jot down the number only; don't add units.

- SUBSTANCE: "Ac-YRAKLPKSAK-NH2 [AE122]"
  MEASURED ENDPOINT: "Times Baseline Response, E^d"
  VALUE: 9.2
- SUBSTANCE: "Ac-YRMKLPKSAA-NH2 [AE128]"
  MEASURED ENDPOINT: "Times Baseline Response, E^d"
  VALUE: 29.5

The record that follows has no Times Baseline Response, E^d shown yet.
Data point: Ac-YRMKLPKAAK-NH2 [AE127] ; Times Baseline Response, E^d = 12.4

* * *

SUBJECT OF TEST: murine E^d MHC class II allele (Mus musculus, UniProt P01904+P01915)
Sequence (P01904 26-255): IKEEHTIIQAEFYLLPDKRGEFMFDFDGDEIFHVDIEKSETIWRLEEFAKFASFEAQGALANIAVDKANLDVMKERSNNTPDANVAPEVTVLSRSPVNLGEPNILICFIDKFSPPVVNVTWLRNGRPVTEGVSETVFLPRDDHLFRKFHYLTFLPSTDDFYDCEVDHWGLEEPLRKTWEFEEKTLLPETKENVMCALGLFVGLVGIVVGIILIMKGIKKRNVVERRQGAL
Sequence (P01915 27-264 limits assumed): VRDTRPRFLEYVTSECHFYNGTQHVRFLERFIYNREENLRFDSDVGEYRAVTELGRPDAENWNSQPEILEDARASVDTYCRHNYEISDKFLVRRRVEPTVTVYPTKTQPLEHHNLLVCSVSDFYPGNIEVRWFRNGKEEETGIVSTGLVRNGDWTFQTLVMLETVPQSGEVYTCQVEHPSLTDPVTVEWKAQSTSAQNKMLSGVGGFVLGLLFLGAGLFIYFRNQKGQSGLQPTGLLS
TEST DETAILS: simultaneous assay, E^d allele (A20 APC, G28.C9 T hybridoma, HEL106-116; HT-2 [3H]TdR readout)
Format: cell-based
Design: The A20 and CH27 B cell lymphoma lines express H-2^d and H-2^k alleles, respectively; endogenous in cells; host or cells: A20 B cell lymphoma (mitomycin C-treated or paraformaldehyde-fixed)
CONDITION LABEL: Table 15; AE peptide 16 μM; supernatant 1:4
Non-standard residues stand in square brackets, D forms with d. hArg = N=C(N)NCCCC[C@H](N)C(=O)O; Cit = NC(=O)NCCC[C@H](N)C(=O)O
# key: entry, value: Times Baseline Response, E^d
Lab note: jot down the number only; don't add units.

// worked examples, Times Baseline Response, E^d included
- SUBSTANCE: "Ac-LRMKLPK-NH2 [AE114]"
  VALUE: 228
- SUBSTANCE: "Ac-LRMK Y PK-NH2 (Ac-LRMKYPK-NH2; not fully specified; printed as Ac-LRMK Y PK-NH2) [AE235]"
  VALUE: 29.4
- SUBSTANCE: "Ac-LRMK HArg PK-NH2 (Ac-LRMK[hArg]PK-NH2; SMILES CSCC[C@H](NC(=O)[C@H](CCCNC(=N)N)NC(=O)[C@H](CC(C)C)NC(C)=O)C(=O)N[C@@H](CCCCN)C(=O)N[C@@H](CCCCNC(=N)N)C(=O)N1CCC[C@H]1C(=O)N[C@@H](CCCCN)C(N)=O) [AE227]"
  VALUE: 32.3
- SUBSTANCE: "Ac-ARMKLPKSAK-NH2 [AE120]"
  VALUE: 19.4
- SUBSTANCE: "Ac-ARMKNPK-NH2 [AE345]"
  VALUE: 3.7
- SUBSTANCE: "Ac-Y[Cit]MKLPKSAK-NH2 [AE131]"
  VALUE: 1.6
- SUBSTANCE: "Ac-ARNKNPK-NH2 [AE346]"
  VALUE: 1.2
- SUBSTANCE: "Ac-LRMKNPF-NH2 [AE350]"
  VALUE: 28.6
- SUBSTANCE: "Ac-LRNKNPF-NH2 [AE348]"
  VALUE: 13.1
- SUBSTANCE: "Ac-LR L KLPK-NH2 (Ac-LRLKLPK-NH2; not fully specified; printed as Ac-LR L KLPK-NH2) [AE206]"
  VALUE: 25.5

The record that follows has no Times Baseline Response, E^d shown yet.
Data point: Ac-LRLKWPK-NH2 [AE309] ; Times Baseline Response, E^d = 13.1

* * *

SUBJECT OF TEST: murine E^d MHC class II allele (Mus musculus, UniProt P01904+P01915)
Sequence (P01904 26-255): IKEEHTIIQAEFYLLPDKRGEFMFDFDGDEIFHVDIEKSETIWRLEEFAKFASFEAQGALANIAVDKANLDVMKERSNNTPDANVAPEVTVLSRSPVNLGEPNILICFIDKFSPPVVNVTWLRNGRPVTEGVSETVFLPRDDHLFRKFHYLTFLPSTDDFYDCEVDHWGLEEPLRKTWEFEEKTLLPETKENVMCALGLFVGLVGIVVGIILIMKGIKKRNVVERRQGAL
Sequence (P01915 27-264 limits assumed): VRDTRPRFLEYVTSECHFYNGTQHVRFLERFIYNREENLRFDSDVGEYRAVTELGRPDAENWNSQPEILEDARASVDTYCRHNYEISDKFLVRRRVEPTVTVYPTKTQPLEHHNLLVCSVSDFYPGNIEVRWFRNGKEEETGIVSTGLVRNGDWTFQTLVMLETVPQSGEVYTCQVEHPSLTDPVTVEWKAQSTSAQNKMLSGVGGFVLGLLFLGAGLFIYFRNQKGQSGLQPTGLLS
TEST DETAILS: simultaneous assay, E^d allele (A20 APC, G28.C9 T hybridoma, HEL106-116; HT-2 [3H]TdR readout)
Format: cell-based
Set-up: The A20 and CH27 B cell lymphoma lines express H-2^d and H-2^k alleles, respectively; endogenous in cells; host or cells: A20 B cell lymphoma (mitomycin C-treated or paraformaldehyde-fixed)
CONDITION LABEL: Table 14; AE peptide 64 μM; supernatant 1:4
# key: entry, value: Times Baseline Response, E^d
Lab note: jot down the number only; don't add units.

- SUBSTANCE: "Ac-LRMK Y PK-NH2 (Ac-LRMKYPK-NH2; not fully specified; printed as Ac-LRMK Y PK-NH2) [AE235]"
  VALUE: 12.5
- SUBSTANCE: "Ac-LR L KLPK-NH2 (Ac-LRLKLPK-NH2; not fully specified; printed as Ac-LR L KLPK-NH2) [AE206]"
  VALUE: 12.7
- SUBSTANCE: "Ac-LRLKWPK-NH2 [AE309]"
  VALUE: 12.1
- SUBSTANCE: "Ac-LRMKLP k-NH2 [AE166]"
  VALUE: 14.7
- SUBSTANCE: "Ac- (mL) RMKLPK-NH2 [AE174]"
  VALUE: 15.9
- SUBSTANCE: "Ac-LRLKYPK-NH2 [AE301]"
  VALUE: 12.5
- SUBSTANCE: "Ac-LRLKYPk-NH2 [AE307]"
  VALUE: 13.2

The record that follows has no Times Baseline Response, E^d shown yet.
Data point: Ac-LRMKLPK-NH2 [AE114] ; Times Baseline Response, E^d = 12.4
